assaySystem: acetylcholinesterase (from human erythrocytes) (Homo sapiens)
Construct: acetylcholinesterase (from human erythrocytes, purchased from Sigma-Aldrich, Seoul, Korea); purchased Sigma-Aldrich, Seoul, Korea; host or cells: human erythrocytes (natural source)
Sequence (P22303 32-617 isoform P22303-2 limits assumed): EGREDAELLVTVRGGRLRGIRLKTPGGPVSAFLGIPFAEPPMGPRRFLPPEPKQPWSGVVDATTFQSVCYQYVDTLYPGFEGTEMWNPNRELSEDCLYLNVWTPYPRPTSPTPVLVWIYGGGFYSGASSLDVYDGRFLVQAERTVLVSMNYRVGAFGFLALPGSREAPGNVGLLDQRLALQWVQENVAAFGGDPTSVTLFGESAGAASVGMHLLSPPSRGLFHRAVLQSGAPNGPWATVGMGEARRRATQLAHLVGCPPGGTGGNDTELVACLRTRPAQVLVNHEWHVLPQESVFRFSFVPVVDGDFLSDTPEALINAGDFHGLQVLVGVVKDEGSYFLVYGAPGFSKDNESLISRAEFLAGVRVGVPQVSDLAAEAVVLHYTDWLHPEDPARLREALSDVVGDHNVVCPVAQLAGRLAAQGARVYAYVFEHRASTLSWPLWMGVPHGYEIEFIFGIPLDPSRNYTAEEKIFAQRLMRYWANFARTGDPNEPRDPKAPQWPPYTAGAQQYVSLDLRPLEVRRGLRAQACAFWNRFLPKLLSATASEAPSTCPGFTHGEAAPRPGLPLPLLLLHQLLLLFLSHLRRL
methodNotes: biochemical
Parameters: unit not given here
assayContext: log(inhibitor) vs. response fit, single run; IC50 Raw Data sheet
Recorded LogIC50 (best-fit value) values for a group of molecules are listed next.
When you answer, write just the number.

Below: 4 molecules and their reported LogIC50 (best-fit value).
Challenge: So what's the measured LogIC50 (best-fit value) for this one? CCCCN(CCc1ccc(OC)cc1)S(=O)(=O)c1ccc(C)cc1
Response given: -1.347

Challenge: So what's the measured LogIC50 (best-fit value) for this one? COc1ccc(CCN(Cc2cccc(C)c2)S(=O)(=O)c2ccc(C)cc2)cc1
Response given: -0.7362

Challenge: So what's the measured LogIC50 (best-fit value) for this one? COc1ccc(CCN(Cc2ccc(C)cc2)S(=O)(=O)c2ccc(C)cc2)cc1
Response given: -0.3835

Challenge: So what's the measured LogIC50 (best-fit value) for this one? COc1ccc(CCN(Cc2ccccc2C)S(=O)(=O)c2ccc(C)cc2)cc1
Response given: -0.3874

Others:
Challenge: So what's the measured LogIC50 (best-fit value) for this one? CCCCCCCN(CCc1ccc(OC)cc1)S(=O)(=O)c1ccc(C)cc1
Response given: -0.759

Challenge: So what's the measured LogIC50 (best-fit value) for this one? CCCCCN(CCc1ccc(OC)cc1)S(=O)(=O)c1ccc(C)cc1
Response given: -0.8411

Challenge: So what's the measured LogIC50 (best-fit value) for this one? COc1ccc(CCN(CCCc2ccccc2)S(=O)(=O)c2ccc(C)cc2)cc1
Response given: -0.4313

Challenge: So what's the measured LogIC50 (best-fit value) for this one? COc1ccc(CCN(C(C)C)S(=O)(=O)c2ccc(C)cc2)cc1
Response given: -1.584
